# Test System: PAR2 (HT-29 cells) (Homo sapiens, UniProt P55085)
# Construct: host or cells: HT-29
# Sequence (P55085 26-397): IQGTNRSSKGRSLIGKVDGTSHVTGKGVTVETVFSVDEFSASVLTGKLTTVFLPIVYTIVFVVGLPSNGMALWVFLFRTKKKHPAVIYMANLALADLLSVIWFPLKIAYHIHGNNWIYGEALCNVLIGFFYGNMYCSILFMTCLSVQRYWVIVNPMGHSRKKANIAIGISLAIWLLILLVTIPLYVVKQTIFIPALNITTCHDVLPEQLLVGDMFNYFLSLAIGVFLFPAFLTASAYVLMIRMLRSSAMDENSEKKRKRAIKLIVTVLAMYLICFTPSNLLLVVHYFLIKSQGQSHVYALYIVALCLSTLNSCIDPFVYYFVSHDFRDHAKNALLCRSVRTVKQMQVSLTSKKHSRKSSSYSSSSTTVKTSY
# Protocol Description: Ca FLIPR TETRA assay, ANTAGONIST mode, activator 8 μM SLIGKV
# Type: cell-based
# Assay Setup: HT-29 cells; activator 8 μM SLIGKV; Method A: maximal concentration of antagonist 0.1, 1 or 2 μM
Parameter: pIC50
Interpret pIC50 as the negative base-10 log of the concentration measured in mol/L.

Some entries whose results are on file:
CC1(C)CCC(c2cc(C(C)(C)C)c3oc(C(=O)N4CCN(C(=O)c5ccc(C(=O)O)nc5)CC4(C)C)cc3n2)CC1	6.68
CC(C)(C)c1cc(N2CCC(C(F)(F)F)CC2)nc2cc(C(=O)N3CCN(C(=O)[C@H]4C[C@](C)(O)C4)CC3(C)C)oc12	8.19
CC(C)(C)c1cc(-c2ccc(Cl)cc2)nc2cc(C(=O)N3CCN(c4ncccn4)CC3(C)C)oc12	7.60

Note to self: pIC50 recorded for `CC(C)(C)c1cc(-c2ccc(Cl)cc2)nc2cc(C(=O)N3CCN(C(=O)[C@H]4CCS(=O)(=O)N4)CC3(C)C)oc12` was 7.59

====

# Test System: PAR2 (HT-29 cells) (Homo sapiens, UniProt P55085)
# Construct: host or cells: HT-29
# Protocol Description: Ca FLIPR TETRA assay, ANTAGONIST mode, activator 8 μM SLIGKV
# Type: cell-based
# Assay Setup: HT-29 cells, activator 8 μM SLIGKV; maximal antagonist concentration per Method (A: 0.1, 1 or 2 μM; B: 50 μM)
Parameter: pIC50
Interpret pIC50 as the negative base-10 log of the concentration measured in mol/L.

Some entries whose results are on file:
CC(C)(C)c1cc(-c2ccc(Cl)cc2)nc2cc(C(=O)N3CCNC(=O)C3(C)C)oc12 [Example I-157]	8.04
C[C@H]1CN(C(=O)c2cc3nc(-c4ccc(F)cc4)cc(C4(C)CC4)c3o2)CCN1C(=O)C(C)(C)O	5.64

Note to self: pIC50 recorded for `Cc1cnoc1C(=O)N1CCN(C(=O)c2cc3nc(-c4ccc(F)cc4)cc(C(C)C)c3o2)C(C)(C)C1` was 8.32

Note to self: pIC50 recorded for `CC[C@@H](O)C(=O)N1CCN(C(=O)c2cc3nc(-c4ccc(F)cc4)cc(C(C)C)c3o2)C(C)(C)C1` was 8.32

Note to self: pIC50 recorded for `CC(C)C[C@@H](O)C(=O)N1CCN(C(=O)c2cc3nc(-c4ccc(F)cc4)cc(C4(C)CC4)c3o2)C(C)(C)C1` was 9.01

Note to self: pIC50 recorded for CC(C)c1cc(-c2ccc(F)cc2)nc2cc(C(=O)N3CCN(C(=O)C(C)(O)C(F)(F)F)CC3(C)C)oc12 (stereo not shown) was 8.00

Note to self: pIC50 recorded for `CC(C)(C)c1cc(-c2ccc(Cl)c(F)c2)nc2cc(C(=O)N3CCN(C(=O)c4cccnc4)CC3(C)C)oc12` was 6.68

====

# Test System: PAR2 (HT-29 cells) (Homo sapiens, UniProt P55085)
# Construct: host or cells: HT-29
# Protocol Description: Ca FLIPR TETRA assay, ANTAGONIST mode, activator 8 μM SLIGKV
# Format: cell-based
# Assay Setup: HT-29 cells, activator 8 μM SLIGKV; maximal antagonist concentration per Method (A: 0.1, 1 or 2 μM; B: 50 μM)
pIC50: −log10 of the molar value.
Tag: MET if measured pIC50 is not below 8, NOT MET if it is.

Completed entries (count: 2):
CC(C)c1cc(-c2ccc(F)cc2)nc2cc(C(=O)N3CCN(C(=O)OC(C)(C)C)C[C@@H]3C)oc12	NOT MET
CC(C)(C)c1cc(C2CCC(F)(F)CC2)nc2cc(C(=O)N3CCN(C(=O)c4ncccn4)CC3(C)C)oc12	NOT MET

Identify whether the reported pIC50 of the following molecule is 8 or greater: `CC(C)(C)c1cc(-c2ccc(F)cc2)nc2cc(C(=O)N3CCN(S(=O)(=O)C4CC4)CC3(C)C)oc12`
MET

Identify whether the reported pIC50 of the following molecule is 8 or greater: `CC(C)c1cc(-c2ccc(F)cc2)nc2cc(C(=O)N3CCN(C(=O)OC(C)(C)C)CC3(C)C)oc12`
MET

Identify whether the reported pIC50 of the following molecule is 8 or greater: `CC(C)(C)OC(=O)N1CCN(C(=O)c2cc3nc(-c4ccc(F)cc4)cc(Cl)c3o2)C(C)(C)C1`
NOT MET

Identify whether the reported pIC50 of the following molecule is 8 or greater: `CN1CCN(C(=O)c2cc3nc(-c4ccc(F)c(Cl)c4)cc(C(C)(C)C)c3o2)C(C)(C)C1=O`
MET

Identify whether the reported pIC50 of the following molecule is 8 or greater: `CC(C)c1cc(-c2ccc(F)cc2)nc2cc(C(=O)N3CCN(C(=O)[C@H](O)CC(C)(C)C)CC3)oc12`
NOT MET

FYI, the data here is from patent US20180057505A1.
